target: IDH2/R140Q (Homo sapiens, UniProt P48735, R140Q); test: Inhibition of mutant IDH2 activity at the cell level (extracellular 2-HG, U87MG overexpressing IDH2/R140Q); format: cell-based; conditions: U87MG overexpressing IDH2/R140Q; 2-HG in medium after 24 hours of culturing with compound; read-out: IC50
Sequence (P48735 40-452 R140Q): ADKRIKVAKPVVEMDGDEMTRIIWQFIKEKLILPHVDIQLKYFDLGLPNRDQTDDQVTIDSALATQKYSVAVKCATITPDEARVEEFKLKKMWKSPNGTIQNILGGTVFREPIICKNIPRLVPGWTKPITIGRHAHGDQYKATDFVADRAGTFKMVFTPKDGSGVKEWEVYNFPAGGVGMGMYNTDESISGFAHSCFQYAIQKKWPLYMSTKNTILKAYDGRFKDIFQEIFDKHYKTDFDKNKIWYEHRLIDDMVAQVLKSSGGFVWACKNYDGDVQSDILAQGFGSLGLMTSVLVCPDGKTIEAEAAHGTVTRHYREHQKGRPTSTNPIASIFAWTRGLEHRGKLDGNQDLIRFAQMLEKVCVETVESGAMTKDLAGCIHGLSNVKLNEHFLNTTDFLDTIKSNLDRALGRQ
pIC50: −log10 of the molar value.
Catalogue of molecules with associated pIC50

Below are worked cases with known answers.
CC(C)n1cnc2c(Nc3ccnc(C(F)(F)F)c3)nc(-c3cccnc3)nc21 | < 5.00
Cc1cc2c(NC3CC3)nc(-c3ccc(F)cc3)nc2[nH]1 | 5.00 to 6.00
CC(C)n1cnc2c(Nc3ccnc(C(F)(F)F)c3)nc(-c3ccncc3)nc21 | < 5.00
CC(C)Nc1nc(-c2ccccc2)nc2[nH]c(C(F)(F)F)cc12 | > 7.00
Cc1cc2c(Nc3ccnc(C(F)(F)F)c3)nc(-c3ccccc3)nc2[nH]1 | 5.00 to 6.00
Cc1cc2c(NC3CC3)nc(-c3ccccc3)nc2[nH]1 | 6.00 to 7.00
Cc1cc2c(NC3CC3)nc(-c3ccc(O)cc3)nc2[nH]1 | 6.00 to 7.00
Cc1nc2c(Nc3ccccc3)nc(-c3ccccc3)nc2[nH]1 | < 5.00

Query :: Return the recorded pIC50 value; entry: `CC(C)Nc1nc(-c2ccccc2)nc2[nH]c(-c3ccccc3)cc12`
Result :: < 5.00

Query :: Consider the molecule `Cc1cc2c(NC(C)C)nc(-c3ccccc3)nc2[nH]1` and give its recorded pIC50.
Result :: 6.00 to 7.00
